assay: Plasma and tissue pharmacokinetics of prodrug 42 in H1975 tumour bearing mice; format: in vivo; conditions: female, NIH-III, mouse, H1975 tumour, 20 umol/kg; single iv dose of 42 at 20 μmol/kg; read-out: AUC0-24 hr H1975 Tumour, 42
metric-name: AUC(0-t) (µM·h)

                  compound_structure_string  value_reported
0  Cn1cnc([N+](=O)[O-])c1C[N+](C)(C)C/C=C/C(=O)Nc1cc2c(Nc3ccc(F)c(Br)c3)ncnc2cn1             123

###

molecular target: erbB2 (Homo sapiens); test: Isolated enzyme inhibition (Invitrogen Z′-LYTE kinase assay); type: biochemical; conditions: 10 μM ATP, duplicate
Sequence (P04626 23-1255): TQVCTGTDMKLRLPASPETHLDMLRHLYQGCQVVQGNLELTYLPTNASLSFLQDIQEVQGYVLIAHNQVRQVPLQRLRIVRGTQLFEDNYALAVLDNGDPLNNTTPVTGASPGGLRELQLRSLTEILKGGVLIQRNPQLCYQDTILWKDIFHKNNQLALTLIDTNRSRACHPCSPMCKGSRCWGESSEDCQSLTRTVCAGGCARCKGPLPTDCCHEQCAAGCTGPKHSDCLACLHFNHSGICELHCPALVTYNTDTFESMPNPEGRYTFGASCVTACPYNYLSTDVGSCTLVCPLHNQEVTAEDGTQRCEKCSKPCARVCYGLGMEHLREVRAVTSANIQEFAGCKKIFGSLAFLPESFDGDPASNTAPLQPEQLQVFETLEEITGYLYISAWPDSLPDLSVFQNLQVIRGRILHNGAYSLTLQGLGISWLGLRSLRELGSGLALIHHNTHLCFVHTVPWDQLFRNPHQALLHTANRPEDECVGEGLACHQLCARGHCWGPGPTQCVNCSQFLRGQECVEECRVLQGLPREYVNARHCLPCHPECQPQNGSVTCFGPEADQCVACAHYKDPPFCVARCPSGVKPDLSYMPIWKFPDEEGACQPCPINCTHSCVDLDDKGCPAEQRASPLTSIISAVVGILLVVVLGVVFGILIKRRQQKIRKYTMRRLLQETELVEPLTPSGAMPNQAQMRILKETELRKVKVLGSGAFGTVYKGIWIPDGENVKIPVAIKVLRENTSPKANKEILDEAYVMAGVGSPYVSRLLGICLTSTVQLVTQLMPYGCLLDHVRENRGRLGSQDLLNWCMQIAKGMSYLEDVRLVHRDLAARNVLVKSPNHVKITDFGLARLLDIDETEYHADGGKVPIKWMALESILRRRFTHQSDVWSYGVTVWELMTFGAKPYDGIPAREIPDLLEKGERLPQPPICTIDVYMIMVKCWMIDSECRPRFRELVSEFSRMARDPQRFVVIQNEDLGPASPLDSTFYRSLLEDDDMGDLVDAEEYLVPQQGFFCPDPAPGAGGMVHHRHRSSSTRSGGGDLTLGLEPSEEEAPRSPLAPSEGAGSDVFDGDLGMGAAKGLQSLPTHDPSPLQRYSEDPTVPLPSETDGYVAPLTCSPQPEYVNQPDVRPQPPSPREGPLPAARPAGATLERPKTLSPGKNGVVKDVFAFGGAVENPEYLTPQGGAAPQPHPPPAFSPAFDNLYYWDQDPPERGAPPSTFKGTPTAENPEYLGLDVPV
Parameter IC50: see the listing below.
metric-name: IC50

In [3]: df
Out[3]:
                  compound_structure_string  metric_name  value_reported
0  C[N+](C)(C/C=C/C(=O)Nc1ccc2ncnc(Nc3cccc(Br)c3)c2c1)Cc1ccccc1[N+](=O)[O-]         IC50          123 nM
1  C[N+](C)(C/C=C/C(=O)Nc1ccc2ncnc(Nc3cccc(Br)c3)c2c1)Cc1ccc([N+](=O)[O-])cc1         IC50          110 nM
2  Cn1cc([N+](=O)[O-])nc1C[N+](C)(C)C/C=C/C(=O)Nc1ccc2ncnc(Nc3cccc(Br)c3)c2c1         IC50          128 nM
3  Cn1ncc([N+](=O)[O-])c1C[N+](C)(C)C/C=C/C(=O)Nc1ccc2ncnc(Nc3cccc(Br)c3)c2c1         IC50          135 nM

###

Parameter pIC50: see the listing below.
biological target: erbB1 (Homo sapiens, UniProt P00533); test: Isolated enzyme inhibition (Invitrogen Z′-LYTE kinase assay); assay type: biochemical; conditions: 10 μM ATP, duplicate
Sequence (P00533 25-1210): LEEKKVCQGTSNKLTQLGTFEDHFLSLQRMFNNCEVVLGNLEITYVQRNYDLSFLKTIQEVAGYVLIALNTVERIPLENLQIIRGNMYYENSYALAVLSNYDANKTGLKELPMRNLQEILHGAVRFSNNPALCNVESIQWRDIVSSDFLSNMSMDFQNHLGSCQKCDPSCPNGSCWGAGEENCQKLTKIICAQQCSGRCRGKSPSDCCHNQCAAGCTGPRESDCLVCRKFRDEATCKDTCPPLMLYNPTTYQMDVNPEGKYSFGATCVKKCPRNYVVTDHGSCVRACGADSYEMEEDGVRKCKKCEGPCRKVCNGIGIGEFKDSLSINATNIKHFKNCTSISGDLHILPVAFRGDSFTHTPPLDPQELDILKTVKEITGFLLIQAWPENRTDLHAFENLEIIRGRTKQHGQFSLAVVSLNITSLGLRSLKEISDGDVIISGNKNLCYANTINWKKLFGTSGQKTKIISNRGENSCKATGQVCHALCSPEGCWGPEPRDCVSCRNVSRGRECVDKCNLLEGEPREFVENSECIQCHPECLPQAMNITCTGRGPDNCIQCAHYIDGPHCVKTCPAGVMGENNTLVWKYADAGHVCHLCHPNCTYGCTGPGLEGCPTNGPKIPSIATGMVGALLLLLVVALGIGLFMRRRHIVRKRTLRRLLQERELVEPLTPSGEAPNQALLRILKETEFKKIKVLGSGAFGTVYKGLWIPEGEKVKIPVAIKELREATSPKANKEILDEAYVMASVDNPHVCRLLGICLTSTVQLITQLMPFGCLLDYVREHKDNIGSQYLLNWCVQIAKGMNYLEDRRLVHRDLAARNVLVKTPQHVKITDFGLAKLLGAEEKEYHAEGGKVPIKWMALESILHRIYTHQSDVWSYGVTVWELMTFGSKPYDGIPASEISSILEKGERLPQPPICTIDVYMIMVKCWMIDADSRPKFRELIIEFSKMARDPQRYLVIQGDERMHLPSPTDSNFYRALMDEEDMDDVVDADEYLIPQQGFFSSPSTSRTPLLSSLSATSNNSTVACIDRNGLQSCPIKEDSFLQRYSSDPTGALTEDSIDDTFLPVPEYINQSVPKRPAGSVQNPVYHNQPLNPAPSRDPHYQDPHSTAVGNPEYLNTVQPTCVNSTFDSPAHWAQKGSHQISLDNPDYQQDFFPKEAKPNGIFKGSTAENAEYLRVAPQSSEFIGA
pIC50: −log10 of the molar value.
metric-name: pIC50

>>> print(df.to_string())
                                   compound  value_reported
0  Cn1cc([N+](=O)[O-])nc1C[N+](C)(C)C/C=C/C(=O)Nc1ccc2ncnc(Nc3cccc(Br)c3)c2c1 [Compound 21]            9.28
1  C[N+](C)(C/C=C/C(=O)Nc1ccc2ncnc(Nc3cccc(Br)c3)c2c1)Cc1ccc([N+](=O)[O-])cc1 [Compound 17]            9.25
2  C[N+](C)(C/C=C/C(=O)Nc1ccc2ncnc(Nc3cccc(Br)c3)c2c1)Cc1ccccc1[N+](=O)[O-] [Compound 18]            9.70
3  Cn1ncc([N+](=O)[O-])c1C[N+](C)(C)C/C=C/C(=O)Nc1ccc2ncnc(Nc3cccc(Br)c3)c2c1 [Compound 22]            9.34
4  Cn1cnc([N+](=O)[O-])c1C[N+](C)(C)C/C=C/C(=O)Nc1ccc2ncnc(Nc3cccc(Br)c3)c2c1.[Br-] [Compound 20]            9.33
5  Cn1cnc([N+](=O)[O-])c1C[N+](C)(C)CCCC(=O)Nc1ccc2ncnc(Nc3cccc(Br)c3)c2c1 [Compound 27]            9.19
6  Cn1c(C[N+](C)(C)C/C=C/C(=O)Nc2ccc3ncnc(Nc4cccc(Br)c4)c3c2)ccc1[N+](=O)[O-].[Br-] [Compound 19]            9.40

The measured values listed here are drawn from patent US9073916B2.
